- Test system: EPLC-272H
- assay-protocol: relative viability (nuclei count vs DMSO), 5 days (fraction); higher = more cells survive
- measurement-parameters: first compound 0.08 µM
measured-endpoint: relative viability

compound="CCCCCCCCCCCC1=C(O)C(=O)C=C(O)C1=O [Embelin] + N=C(N)NC(=N)NCCc1ccccc1 [Phenformin] (partner 250 µM)" reading=0.307
compound="CCCCCCCCCCCC1=C(O)C(=O)C=C(O)C1=O [Embelin] + CS(=O)(=O)N1CCN(Cc2cc3nc(-c4cccc5[nH]ncc45)nc(N4CCOCC4)c3s2)CC1 [Pictilisib] (partner 1 µM)" reading=0.319
compound="CCCCCCCCCCCC1=C(O)C(=O)C=C(O)C1=O [Embelin] + CS(=O)(=O)CCNCc1ccc(-c2ccc3ncnc(Nc4ccc(OCc5cccc(F)c5)c(Cl)c4)c3c2)o1 [Lapatinib] (partner 2 µM)" reading=0.899
compound="CCCCCCCCCCCC1=C(O)C(=O)C=C(O)C1=O [Embelin] + CC1(C)CCC(c2ccc(Cl)cc2)=C(CN2CCN(c3ccc(C(=O)NS(=O)(=O)c4ccc(N[C@H](CCN5CCOCC5)CSc5ccccc5)c(S(=O)(=O)C(F)(F)F)c4)cc3)CC2)C1 [Navitoclax] (partner 0.5 µM)" reading=1.07
compound="CCCCCCCCCCCC1=C(O)C(=O)C=C(O)C1=O [Embelin] + CC(C)C[C@H](NC(=O)[C@H](Cc1ccccc1)NC(=O)c1cnccn1)B(O)O [Bortezomib] (partner 0.002 µM)" reading=0.804
